- subjectOfTest: T1, CD27 expressed on the cell surface (HT1080_CD27 cells) (human, UniProt P26842 20-260)
- T1 construct: whole, on cells; also called K562_CD27
- T1 sequence (looked up): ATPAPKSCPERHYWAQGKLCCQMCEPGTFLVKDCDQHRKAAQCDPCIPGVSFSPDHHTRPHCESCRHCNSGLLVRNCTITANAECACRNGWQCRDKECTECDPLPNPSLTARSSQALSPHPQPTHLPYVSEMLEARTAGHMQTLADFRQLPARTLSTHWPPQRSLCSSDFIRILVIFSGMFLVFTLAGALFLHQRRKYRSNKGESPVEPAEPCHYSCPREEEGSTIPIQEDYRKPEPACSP
- protocolNotes: cellular binding assay, HT1080_CD27 cells; also: test concentration or dose not given here
Cellular binding assay [RFU] overview
// note: answer is a bare numeric in RFU

Some solved entries appear below for comparison.
binder	reportedValue
P018.S.01.A.G02 (antibody, V domains shown, V regions on human Ig constant parts; also called AB27_21) VH: QEQLEESGGRLVTPGGTLTLTCTASGFSLSSYDMSWVRQAPGKGLEWIGYIWSDGNTDYATWAAGRFTASRASTTVDLKMTSLTTEDTATYFCARGYTGFFLWGPGTLVTVSS VL: DVVMTQTPSSVSAAVGGTVTIKCQASQSIGSSYLSWYQQKPGQPPKLLIYKTSTLASGVPSRFKGSGSGTEFTLTISDLESDDAATYYCQCTYYGGSWRVAFGGGTEVVVK	363
P018.S.03.A.C02 (antibody, V domains shown, V regions on human Ig constant parts; also called AB27_44) VH: QSVEESGGRLVTPGTPLTLTCTVSRFSLSTSTMTWVRQAPGKGLEWIGIINGGGSAYYANWAKGRFTISKTSTTVDLKITSPTTEDTATYFCARSYDSYDDIYGTSRLYAFDPWGPGTLVTVSS VL: AYDMTQTPASVEVVVGGTVTISCQASESIYANLAWYQQKPGQPPKLLIYRASYLASGVSSRFKGSGSGTQFTLTISGVESADAATYYCQQGYSSSNVDNSFGGGTEVVVK	317

Then this binder:
Ask: Request the reported Cellular binding assay [RFU] associated with P018.S.10.A.B06 (antibody, V domains shown, V regions on human Ig constant parts; also called AB27_169) VH: QSVEESGGRLVTPGTPLTLTCTVSGFSLSSSHMCWVRQAPGKGLEWIGVINIGDIAYYASWAKGRFTISKTSTTVDLKMTSLTAADTATYFCARENAYGTGWDFDLWGQGTLVTVSS VL: AYDMTQTPASVEVAVGGTVTIKCQASESIRNALAWYQQKPGQPPKQLIYSASTLASGVPSRFKGSGSGTEFTLTISGVQSDDAATYYCQQGFSLRNVDNAFGGGTEVVVK
Reply: 308

Data provenance: patent US20210253725A1
